Listed next: entries and their corresponding Rate of increase or decrease.
assay: LC/MS of serum sample: number of times of freezing and thawing (Table M); format: physicochemical, human; design: key: detection intensity relative to 1 at 2 freeze-thaw cycles; conditions: 4 times of freezing and thawing; detection intensity relative to 1 at 2 times
Please give the numeric answer without any surrounding text.

In the examples that follow, each entry is paired with its recorded Rate of increase or decrease.
- MOLECULE: "Nc1ncnc2c1ncn2[C@@H]1O[C@H](COP(=O)(O)O)[C@@H](O)[C@H]1O [Adenosine monophosphate]"
  Rate of increase or decrease: 0.23
- MOLECULE: "CN(CC(=O)O)C(=N)N"
  Rate of increase or decrease: 0.63

Now let's try a different one.
Consider `Nc1ncnc2nc[nH]c12` . Its measured Rate of increase or decrease is 0.57

----------
Listed next: entries and their corresponding Rate of increase or decrease (first value, increase).
assay: LC/MS of blood plasma sample: time from blood collection to cooling of blood (Table E); format: physicochemical, human; design: key: detection intensity relative to ≤1 min to cooling = 1; settings: different from individual to individual, individuals with increase, relative to 1 at 1 minute or less, collection to cooling 5 minutes
Please give the numeric answer without any surrounding text.

In the examples that follow, each entry is paired with its recorded Rate of increase or decrease (first value, increase).
- COMPOUND: "OC[C@H]1O[C@@H](n2cnc3c(O)ncnc32)[C@H](O)[C@@H]1O"
  QUANTITATIVE_READOUT: 18.25
- COMPOUND: "Nc1ncnc2c1ncn2[C@@H]1O[C@H](CSCC[C@H](N)C(=O)O)[C@@H](O)[C@H]1O"
  QUANTITATIVE_READOUT: 1.40

Consider Nc1nc2c(ncn2[C@@H]2O[C@H](COP(=O)(O)O)[C@@H](O)[C@H]2O)c(=O)[nH]1 [Guanosine monophosphate] . Its measured Rate of increase or decrease (first value, increase) is 1.47

Consider `Nc1ccn([C@@H]2O[C@H](CO)[C@@H](O)[C@H]2O)c(=O)n1` . Its measured Rate of increase or decrease (first value, increase) is 2.56

----------
assay: GC/MS of serum sample: time from blood collection to centrifugation (Table G); assay type: physicochemical, human; conditions: detection intensity relative to 1 at 15 minutes, blood collection to centrifugation, after 4 hours
Listed next: entries and their corresponding Rate of increase or decrease.
Please give the numeric answer without any surrounding text.

In the examples that follow, each entry is paired with its recorded Rate of increase or decrease.
- SMILES_ENTRY: "OC[C@@H](O)[C@@H](O[C@@H]1O[C@H](CO)[C@H](O)[C@H](O)[C@H]1O)[C@H](O)[C@@H](O)CO"
  Rate of increase or decrease: 3.20
- SMILES_ENTRY: "O=C(O)C=C(CC(=O)O)C(=O)O"
  Rate of increase or decrease: 1.52
- SMILES_ENTRY: "O=C(O)CCc1c[nH]c2ccccc12"
  Rate of increase or decrease: 1.93
- SMILES_ENTRY: "O=c1[nH]cnc2nc[nH]c12"
  Rate of increase or decrease: 2.11

Now let's try a different one.
Consider `CC(=O)NCCCC[C@H](N)C(=O)O` . Its measured Rate of increase or decrease is 1.55

----------
assay: GC/MS of blood plasma sample: time from blood collection to cooling of blood (Table B); assay type: physicochemical, human; design: key: detection intensity relative to 1 at cooling time ≤1 min; settings: detection intensity relative to 1 at 1 minute or less, blood collection to cooling 5 minutes
Listed next: entries and their corresponding Rate of increase or decrease.
Please give the numeric answer without any surrounding text.

In the examples that follow, each entry is paired with its recorded Rate of increase or decrease.
- COMPOUND: "O=c1[nH]c(=O)c2[nH]c(=O)[nH]c2[nH]1"
  Rate of increase or decrease: 0.49
- COMPOUND: "NCCS(=O)O"
  Rate of increase or decrease: 1.43
- COMPOUND: "NCCc1c[nH]cn1"
  Rate of increase or decrease: 0.67
- COMPOUND: "O=c1[nH]c(=O)c2[nH]cnc2[nH]1"
  Rate of increase or decrease: 0.45
- COMPOUND: "O=C1CCNC(=O)N1 [Dihydrouracil]"
  Rate of increase or decrease: 1.42
- COMPOUND: "CS(=O)(=O)CC[C@H](N)C(=O)O"
  Rate of increase or decrease: 0.70

Consider `O=C(CO)[C@H](O)[C@H](O)CO` . Its measured Rate of increase or decrease is 1.96

Consider `O=C(O)C(=O)O` . Its measured Rate of increase or decrease is 1.58

Consider `N[C@@H](CS(=O)O)C(=O)O` . Its measured Rate of increase or decrease is 0.61

----------
Listed next: entries and their corresponding Rate of increase or decrease.
assay: LC/MS of serum sample: number of times of freezing and thawing (Table M); type: physicochemical, human; set-up: key: detection intensity relative to 1 at 2 freeze-thaw cycles; conditions: 6 times of freezing and thawing; detection intensity relative to 1 at 2 times
Please give the numeric answer without any surrounding text.

In the examples that follow, each entry is paired with its recorded Rate of increase or decrease.
- MOLECULE: "O=c1[nH]c(=O)c2[nH]c(=O)[nH]c2[nH]1 [Uric acid]"
  Rate of increase or decrease: 0.70
- MOLECULE: "NC(=O)c1cccnc1 [Nicotinamide]"
  Rate of increase or decrease: 0.69
- MOLECULE: "N=C(N)NCCC[C@H](N)C(=O)O [Arginine]"
  Rate of increase or decrease: 0.64

Now let's try a different one.
Consider CN=C(NC)NCCC[C@H](N)C(=O)O [Symmetric dimethylarginine] . Its measured Rate of increase or decrease is 0.55

----------
assay: LC/MS of blood plasma sample: number of times of freezing and thawing (Table F); assay type: physicochemical, human; conditions: detection intensity relative to 1 at 2 times, freezing and thawing 4 times
QUANTITY: Rate of increase or decrease
Please give the numeric answer without any surrounding text.

In the examples that follow, each entry is paired with its recorded Rate of increase or decrease.
- COMPOUND: "N=C(N)NCCC[C@H](NC(CC(=O)O)C(=O)O)C(=O)O (stereo partly shown)"
  QUANTITATIVE_READOUT: 2.01
- COMPOUND: "O=C(O)CC(O)C(=O)O (stereo not shown)"
  QUANTITATIVE_READOUT: 2.37
- COMPOUND: "Nc1ncnc2c1ncn2[C@@H]1O[C@H](CO)[C@@H](O)[C@H]1O"
  QUANTITATIVE_READOUT: 0.58
- COMPOUND: "C[S+](CC[C@H](N)C(=O)[O-])C[C@H]1O[C@@H](n2cnc3c(N)ncnc32)[C@H](O)[C@@H]1O (stereo partly shown)"
  QUANTITATIVE_READOUT: 1.33
- COMPOUND: "NCCCC(=O)O"
  QUANTITATIVE_READOUT: 1.76
- COMPOUND: "NC(=O)NC1NC(=O)NC1=O (stereo not shown)"
  QUANTITATIVE_READOUT: 0.55

Consider `CN(CC(=O)O)C(=N)N` . Its measured Rate of increase or decrease is 1.39

----------
assay: GC/MS of blood plasma sample: time from blood collection to centrifugation (Table A); assay type: physicochemical, human; conditions: detection intensity relative to 1 at 15 minutes, blood collection to centrifugation, after 4 hours
Listed next: entries and their corresponding Rate of increase or decrease.
Please give the numeric answer without any surrounding text.

In the examples that follow, each entry is paired with its recorded Rate of increase or decrease.
- MOLECULE: "Oc1ccccn1 [2-Hydroxypyridine]"
  Rate of increase or decrease: 0.57
- MOLECULE: "NC(=O)NC1NC(=O)NC1=O (stereo not drawn)"
  Rate of increase or decrease: 0.18
- MOLECULE: "O=C(O)C=C(CC(=O)O)C(=O)O"
  Rate of increase or decrease: 0.41
- MOLECULE: "O=C(O)c1cccnc1C(=O)O"
  Rate of increase or decrease: 2.24
- MOLECULE: "Oc1ccc(O)cc1 [Hydroquinone]"
  Rate of increase or decrease: 17.48

Now let's try a different one.
Consider `CC(C)(CO)[C@@H](O)C(=O)NCCC(=O)O` . Its measured Rate of increase or decrease is 3.15

----------
Listed next: entries and their corresponding Rate of increase or decrease.
test: GC/MS of serum sample: number of times of freezing and thawing (Table I); type: physicochemical, human; parameters: key: detection intensity relative to 2 freeze-thaw cycles = 1; details: detection intensity relative to 1 at 2 times; serum, GC/MS; freezing and thawing 4 times
Please give the numeric answer without any surrounding text.

In the examples that follow, each entry is paired with its recorded Rate of increase or decrease.
- COMPOUND: "CC(=O)NCCCC[C@H](N)C(=O)O"
  QUANTITY: "Rate of increase or decrease"
  QUANTITATIVE_READOUT: 0.67
- COMPOUND: "N[C@@H](CS(=O)O)C(=O)O"
  QUANTITY: "Rate of increase or decrease"
  QUANTITATIVE_READOUT: 0.47
- COMPOUND: "NCCc1ccc(O)c(O)c1"
  QUANTITY: "Rate of increase or decrease"
  QUANTITATIVE_READOUT: 0.53
- COMPOUND: "OB(O)O"
  QUANTITY: "Rate of increase or decrease"
  QUANTITATIVE_READOUT: 0.63
- COMPOUND: "O=C(CO)[C@H](O)[C@H](O)[C@H](O)CO"
  QUANTITY: "Rate of increase or decrease"
  QUANTITATIVE_READOUT: 0.54

Consider CCCCCCC(N)C(=O)O (centres unmarked) . Its measured Rate of increase or decrease is 2.80

Consider `O=CC(=O)O` . Its measured Rate of increase or decrease is 0.63

Consider `O=C(O)/C=C\C(=O)O` . Its measured Rate of increase or decrease is 2.62
